- assay-method-text: Cytotoxicity activity against human HepG2 cells assessed by CellTiter-Glo luminescent cell viability assay.
- Format: toxicity, cell-based
- Parameters: assay stage confirmatory assay, source tissue liver
- assay-context: HepG2 cells, read-out: IC50 relative
The source made the active and inactive calls. No rule for the calls is given here.
recorded-metric: CC50

{"molecule": "CCCn1c(NC(=O)c2cccc(S(=O)(=O)N3CCN(C(C)=O)CC3)c2)nc2ccccc21", "CC50": "8.3 µM (active)"}
{"molecule": "O=C1c2ccccc2-c2n[nH]c3cccc1c23", "CC50": "6.2 µM (active)"}
{"molecule": "CS(=O)(=O)c1ncc(Br)c(C(=O)Nc2ccc(F)cc2)n1", "CC50": "2.8 µM (active)"}
{"molecule": "CN(Cc1cnc2nc(N)nc(N)c2n1)c1ccc(C(=O)N[C@@H](CCC(=O)O)C(=O)O)cc1 [METHOTREXATE]", "CC50": "< 0.1 µM (active)"}

For this molecule ( Nc1nc(S)c2ncn(C3OC(CO)C(O)C3O)c2n1 (stereo not given) ), measured CC50 is 2.5 µM (active)
